# Tested on: MS2 coat protein
# testProtocol: apparent KD of MS2 coat protein; higher = weaker reporter binding
# testSettings: Eterna round: R107; input ligand: theophylline 20 uM
Grouping key: apparent KD of MS2 coat protein. Bins: one: < 30 nM; two: ≥ 30 nM and < 60 nM; three: ≥ 60 nM

Consider the worked cases shown below.
[[record]]
macromoleculesequence = "UAUCCACAUGAGGAUCACCCAUGUUAGGAAGGAGCGGUGAAUGCACCAGGUAGGUCGCCUAGCUGAGGACUGUCGGUGGAUUCGU [Exclusion - Arginine A (Freestyle 19)]"
assignedclass = "two"

[[record]]
macromoleculesequence = "ACAUGAGGAUCACCCAUGUACGAGUCGGAAGGAGCGGCAAUUAAGCCAGGUAGGUCGCCGGCAGAGAGUGUCAUUGUAAGUAUGA [Same State - Arginine A / A]"
assignedclass = "one"

[[record]]
macromoleculesequence = "ACACAUGAGGAUCACCCAUGUGCGCUGGAAGGAGCGCAGAAUCAUGCAGGUAGGUCGCCAGUGCCUUUUGAUAAAGGGAAAAGAA [Cezaquce]"
assignedclass = "three"

[[record]]
macromoleculesequence = "UAAAACAUGAGGAUCACCCAUGUAAUUGAUACCAGAGUGAUGAUCCUCCCUUGGCAGCAAAACGCUGAUUGAUUACAAUCAGCGA [Mat - Same State Theophlline A - Mod of Eli - D24]"
assignedclass = "three"

[[record]]
macromoleculesequence = "UGUACCAUGUCGGCCGCCACUCAUGAUAAACAAGAGGAUCACCCUUGUAGCGUCAAAGACGCUAUGAGGACCGGGACAUGGUACU [TryBS Zipper 2]"
assignedclass = "two"

[[record]]
macromoleculesequence = "UCGGACAUGAGGAUCACCCAUGUAAAUCCUCGAGGACCGGUACGGCCGCCACUCGAACGAGUGGCACGCGAGUGCGCACUCGCGU [aEa]"
assignedclass = "two"

[[record]]
macromoleculesequence = "AUAUUAAUCGGAAGGAGCGGUACAUGAGGAUCACCCAUGUGUGAAGCGAGCAGAUCCCGUUACCAGGUAGGUCGCCGAGUUAUGA [XArg-B6]"
assignedclass = "three"

[[record]]
macromoleculesequence = "AUGUCUGAGUCGGCCGCCACUGGGUGUGGGUGAUGCCGGAUGUUGUACAUGAGGAUCACCCAUGUCAGGACCGGGAUUCCCACGA [Receve]"
assignedclass = "one"


Hi there! Could you help me figure out the category for GACCGAUUAUAGUGCGAUUGUCUUGUGGAAGGAGCGCAGAGGACUGCAGGUAGGUCGCCACAUGAGGAUCACCCAUGUCAGGAUU [Reinorlaan] please?
two

Hi there! Could you help me figure out the category for AGAGGUAUACAUGGAAACAUGUAUAUUUCACGAGGACCGGUACGGCCGCCACUCGGUACCGGAAACACAUGAGGAUCACCCAUGU [Ex_TrypA - H1] please?
one

---

# Test system: MS2 coat protein
# testProtocol: apparent KD of MS2 coat protein; designed switch direction (-1 OFF switch, 1 ON switch): 1; higher = weaker reporter binding
# testSettings: input ligand: none
Listed sequences paired with reported apparent KD of MS2 coat protein
Give the value, in units of nM, as a plain number.

[[record]]
macromoleculesequence = "GGUAGGUUACUACCAAACAUGAGGAUCACCCAUGUUAAUGGGAAGGAUAUGGUACCUAUUUGGUACCAGAAGGUCCAAAUAAUU [Mat - Same State NG 3 - JL Mod - D97] (Eterna round: R96, puzzle: Same State NG 3)"
recordednumber = 596


The record that follows has no apparent KD of MS2 coat protein shown yet.
// query apparent KD of MS2 coat protein value for entry ACGCCCUCAGUAGGAUAUGGGAAAGGAAGUGUACCAGAAGGACUGGUUGAACAUGAGGAUCACCCAUGUUCAACGACAGGGCGA [PowerStrip SSNG 1.25] (Eterna round: R96, puzzle: Same State NG 1)
22.8

---

# Tested on: K4 kissing-loop RNA reporter;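 note: bound reporter read as fluorescence of individual clusters on recovered sequencing chips by microscopy, with normalized cluster intensities fitted with a binding model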
# testProtocol: apparent KD of K4 kissing-loop reporter; higher = weaker reporter binding
# testSettings: Eterna round: R107; input ligand: none
outcomeMeasure: apparent KD of K4 kissing-loop reporter (nM)
Give the value, in units of nM, as a plain number.

Would you please look over these solved cases?
[[record]]
macromoleculesequence = "AAGGGCUAGGCGGCCGCCACUGGUCGUGUACACAUACAGACCAGUGAUGUUGGUAUUGUAUGCGACAGGACCGGGCCUAGCCCAA [Exclusion - Tryptophan B (Freestyle 29)]"
targetsystem = "K4 kissing-loop RNA reporter"
recordednumber = 263

[[record]]
macromoleculesequence = "GUUACGCAUGGAAGGAGCGCAGGCUCAACAAAUAGCUCAGUGAUGUUGAGCAUAUUAAAUCUGCAGGUAGGUCGCCAUGUGUAAC [Ex Arginine B K4 24]"
targetsystem = "K4 kissing-loop RNA reporter"
recordednumber = 504


The record that follows has no apparent KD of K4 kissing-loop reporter shown yet.
// query apparent KD of K4 kissing-loop reporter value for entry AGUGAUAUAUGAGGAUAUGGGUUUGUUAAUGAGUUUGUUUUAGUGUUGUUUGGUUAGUGAUGUUAUUUAGAAGGCGUGAGUGAUG [vxxexmullin]
82.4

---

# System: MS2 coat protein
# testProtocol: apparent KD of MS2 coat protein; designed switch direction (-1 OFF switch, 1 ON switch): -1; higher = weaker reporter binding
# testSettings: Eterna round: R95; input ligand: microRNA oligo, concentration not stated
Listed sequences paired with reported apparent KD of MS2 coat protein
The answer should read as a number with its unit following.

Would you please look over these solved cases?
[[record]]
macromoleculesequence = "CUCUUGUGAGGAUAUCAGGUGUGCUAGCGUACUGGUACAUCUGAGAAGGCACAUGAGGAUCACCCAUGUUUCAA [Mat - Exclusion 4 - Mod of JL - D41] (puzzle: Exclusion 4)"
result = "52.5 nM"

[[record]]
macromoleculesequence = "GGUGCGUUUGUGAGGAUAUGCUGGUCCUUGGAUCAGCAGAAGGCACAUGAGGAUCACCCAUGUGGUGUCGUACC [salish99_Bmod_Ex4_030] (puzzle: Brourd's mod of Exclusion 4)"
result = "273 nM"

[[record]]
macromoleculesequence = "CUUUUGUGAGGAUAUCAGUAGUAAAUAUAUAAAAUUACUACUGAGAAGGCACAUGAGGAUCACCCAUGUUCCUC [salish99_ex3_r3_079] (puzzle: Exclusion 4)"
result = "38.8 nM"


// query apparent KD of MS2 coat protein value for entry CUAUUACGAGGAUAUGAUUUAAGUAACAUGAGGAUCACCCAUGUUUUUCCGUUGUUAUGUUCAGAAGGCGUAUUAU [JR_E5_Sub023] (puzzle: Exclusion 5)
35.6 nM

// query apparent KD of MS2 coat protein value for entry CUUAAACAUGAGGAUCACCCAUGUCAGGAUAUGAUACUAUGUACUUCGGUACAUAGUAUCAGAAGGGAUAUGAA [Ex1-3: 64] (puzzle: Exclusion 1)
43.1 nM

// query apparent KD of MS2 coat protein value for entry GCCUUACAUGAGGAUCACCCAUGUCAGGAUAUGUCAGAGUAGGUAAAACACCACUCUAAUAGAAGGGACAUGCA [Diisarlais] (puzzle: Exclusion 1)
16.5 nM

// query apparent KD of MS2 coat protein value for entry UUCUUGGCAGGAUAUGCUUUUUUAGACAUGAGGAUCACCCAUGUGAUGAUUAUUGGUUUUGCAGAAGGGCCUUAAU [JR_E5_Sub041] (puzzle: Exclusion 5)
49.4 nM

// query apparent KD of MS2 coat protein value for entry GUCGAGUGAGGAUAUGGUGAGUAGUGCCUGAGCGCUGCUCACCAGAAGGCACAUGAGGAUCACCCAUGUAUGUC [JL-ex4-2.04 denovo] (puzzle: Exclusion 4)
12.3 nM

---

# System: MS2 coat protein
# testProtocol: apparent KD of MS2 coat protein; designed switch direction (-1 OFF switch, 1 ON switch): -1; higher = weaker reporter binding
# testSettings: input ligand: FMN 200 uM
outcomeMeasure: apparent KD of MS2 coat protein (nM)
Give the value, in units of nM, as a plain number.

[[record]]
macromoleculesequence = "GCAGCAACUCUAAUCAAUCCAACAUGAGGAUCACCCAUGUCUCAGGAUAUGGUCUGGAUUACAGGCCAGAAGGGAGAAAGCUGC [Eli exng3 - 046] (Eterna round: R96, puzzle: Exclusion NG 3)"
unitspec = "nM"
recordednumber = 9.07


// query apparent KD of MS2 coat protein value for entry AAAAAAAACAAGCUUAGGGACAUGAGGAUCACCCAUGUUCGUCUUAUAAAAAUAAAAAUAAAAAACAAAAAAUAAAA [Sensor V2: 53] (Eterna round: R96, puzzle: Sensor v2, turn-off variant)
22.5

// query apparent KD of MS2 coat protein value for entry CUGAUGUGAGGAUAUGUGAUCUGCCUUCUAUGUAGAUGAUCACAGAAGGCACAUGAGGAUCACCCAUGUAGAUC [Ex4 - 3 - 26] (Eterna round: R96, puzzle: Exclusion 4)
129

// query apparent KD of MS2 coat protein value for entry GUCAGACGAGGAUAUAGAUUUAGAUACAUGAGGAUCACCCAUGUAUACAUGUAUUUAGAUUUAGAAGGCGUCUGAC [E5/14-A4] (Eterna round: R97, puzzle: Exclusion 5)
492

// query apparent KD of MS2 coat protein value for entry UGUUGGUACGUAGGAUAUCCACCAACAGGUGGAAGGAUAUGGAAACAGAAGGUUCGCCAACAGGCGGAGAAGGACGUGGUAACU [pwkr exNG2 2xF7 2xFMN.24] (Eterna round: R96, puzzle: Exclusion NG 2)
126

// query apparent KD of MS2 coat protein value for entry AGUCCACUUACAAGCUUUUACAUGAGGAUCACCCAUGUGUGGGACCCUAAGGGUGCUCAUGACCGCUCCAUACUCUC [Eternabot (L1) Solution 4] (Eterna round: R97, puzzle: Sensor, turn-off variant 1)
240

// query apparent KD of MS2 coat protein value for entry GUCGAUGUCAAAGGAUAUCAGCACGUUUAGUGCUGAGAAGGUUGAACAUGAGGAUCACCCAUGUAGAUCAUUAACGACUUAAUU [ENG1/10-A1] (Eterna round: R96, puzzle: Exclusion NG 1)
44.5

// query apparent KD of MS2 coat protein value for entry GGUUUCGUAGGAUAUCAUCGAGUAAACAUGAGGAUCACCCAUGUGAGGUCGGCUUGCUCUUGAGAAGGAUGAAUGG [EX5 B.13] (Eterna round: R97, puzzle: Exclusion 5)
40.1

Where do the numbers come from? From the supplement of paper PMC9170038.
